For each of the compounds below, state its Ki.
Molecular target: human plasmin (Homo sapiens)
Construct: purchased Calbiochem
Sequence (P00747 581-810): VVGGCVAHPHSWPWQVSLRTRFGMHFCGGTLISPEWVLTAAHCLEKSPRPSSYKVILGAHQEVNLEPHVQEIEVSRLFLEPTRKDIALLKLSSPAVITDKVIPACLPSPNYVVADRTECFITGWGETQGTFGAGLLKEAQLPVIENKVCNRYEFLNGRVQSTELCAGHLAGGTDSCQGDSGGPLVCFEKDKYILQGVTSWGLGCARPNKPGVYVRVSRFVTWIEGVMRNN
Sequence (P00747 97-580): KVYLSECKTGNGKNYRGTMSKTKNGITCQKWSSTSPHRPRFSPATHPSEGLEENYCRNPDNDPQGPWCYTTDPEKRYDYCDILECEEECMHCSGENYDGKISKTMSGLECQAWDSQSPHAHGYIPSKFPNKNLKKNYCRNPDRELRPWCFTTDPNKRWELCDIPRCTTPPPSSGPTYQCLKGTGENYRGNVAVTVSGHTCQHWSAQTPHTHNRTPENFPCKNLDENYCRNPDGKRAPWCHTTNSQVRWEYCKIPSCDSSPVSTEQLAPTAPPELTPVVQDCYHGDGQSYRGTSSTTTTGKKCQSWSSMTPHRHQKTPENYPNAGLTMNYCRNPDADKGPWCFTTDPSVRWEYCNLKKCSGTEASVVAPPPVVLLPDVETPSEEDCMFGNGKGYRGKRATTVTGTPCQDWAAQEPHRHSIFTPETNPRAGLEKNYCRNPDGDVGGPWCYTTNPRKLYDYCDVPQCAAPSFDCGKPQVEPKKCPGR
Test: Inhibition of human plasmin, fluorogenic substrate Mes-DArg-Phe-Arg-AMC
Type: biochemical
Settings: Plasmin K i, Table 3 selectivity

compound	assayed-system	Ki
NC[C@H]1CC[C@H](C(=O)N[C@H]2Cc3ccc(cc3)-c3ccc(C(=O)Nc4ccccc4)c(c3)NC(=O)CNC(=O)CCCNC(=O)Cc3ccc(cc3)NC2=O)CC1	human plasmin (Homo sapiens)	1.46 nM
Cc1ccc2cc1NC(=O)C(Cc1ccccc1)NC(=O)CCCNC(=O)Cc1ccc(cc1)NC(=O)C(NC(=O)C1CCC(CN)CC1)Cc1ccc-2cc1 (stereo not shown)	human plasmin (Homo sapiens)	2.08 nM
CC(C)NC(=O)c1ccc2cc1NC(=O)CNC(=O)CCCNC(=O)Cc1ccc(cc1)NC(=O)C(NC(=O)C1CCC(CN)CC1)Cc1ccc-2cc1 (stereo not shown)	human plasmin (Homo sapiens)	0.524 nM

Moving on to the next compound.
Incoming: Field request: Ki | item: Cc1ccc2cc1NC(=O)C(CCc1ccccc1)NC(=O)CCCNC(=O)Cc1ccc(cc1)NC(=O)C(NC(=O)C1CCC(CN)CC1)Cc1ccc-2cc1 (stereo not shown)
Outgoing: 0.831 nM

Where do these numbers come from? They come from paper PMC11617653.
